- Subject Of Test: c-Jun N-terminal kinase
- Experimental Protocol: c-Jun N-terminal kinase assay
- Experimental Parameters: 15 μM ATP
Experimental Endpoint: pIC50
Scale: negative log10 of molar concentration, which is what pIC50 denotes.

Task item: // returns reported pIC50 for input NC1=NC(=O)C(=C2CCNC(=O)c3[nH]c(Br)cc32)N1
Reply: 5.07

====

- Subject Of Test: GSK3-β (UniProt P18266)
- Construct: GSK-3β was either purified from rabbit muscle or expressed in and purified from insect Sf9 cells [18]
- Experimental Protocol: GSK-3β kinase assay (GS-1 peptide)
- Format: biochemical, rabbit
- Experimental Parameters: 15 μM ATP; −(x) = no effect at highest concentration x tested; read-out: IC50 GSK3-β
Experimental Endpoint: pIC50
In simple prose, pIC50 is minus the logarithm base ten of a concentration in moles per litre.

Task item: // fetch GSK3-β (UniProt P18266) pIC50 for Nc1ncc(/C=C/CNC(=O)c2cc(Br)c[nH]2)[nH]1
Reply: 4.92

Task item: Fill in the recorded pIC50 for this compound, with GSK3-β (UniProt P18266) as test system: O=C1NC(=O)/C(=C2/CCNC(=O)c3[nH]c(Br)cc32)N1
Reply: 5.52

Task item: Provide the documented pIC50 with GSK3-β (UniProt P18266) as the system for Nc1ncc(C2c3nc(N)[nH]c3CC(CNC(=O)c3cc(Br)c(Br)[nH]3)C2CNC(=O)c2cc(Br)c(Br)[nH]2)[nH]1 (stereo not drawn)
Reply: 4.96

Task item: Form field - read-out: pIC50; system: GSK3-β (UniProt P18266); submitted item: Nc1ncc(/C=C/CNC(=O)c2cc(Br)c(Br)[nH]2)[nH]1
Reply: 4.70

====

- Subject Of Test: CDK5/p35 (Rattus norvegicus, UniProt Q03114)
- Sequence (Q03114 whole entry): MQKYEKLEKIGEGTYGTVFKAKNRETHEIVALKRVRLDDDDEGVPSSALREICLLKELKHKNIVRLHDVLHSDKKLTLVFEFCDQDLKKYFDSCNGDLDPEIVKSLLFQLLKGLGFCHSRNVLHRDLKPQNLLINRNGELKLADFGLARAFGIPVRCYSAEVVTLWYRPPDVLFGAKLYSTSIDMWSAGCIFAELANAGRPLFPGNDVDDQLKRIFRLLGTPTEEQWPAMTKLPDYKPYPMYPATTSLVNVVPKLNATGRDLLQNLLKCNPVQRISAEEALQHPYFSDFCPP
- Sequence (P61810 2-307 partner limits assumed): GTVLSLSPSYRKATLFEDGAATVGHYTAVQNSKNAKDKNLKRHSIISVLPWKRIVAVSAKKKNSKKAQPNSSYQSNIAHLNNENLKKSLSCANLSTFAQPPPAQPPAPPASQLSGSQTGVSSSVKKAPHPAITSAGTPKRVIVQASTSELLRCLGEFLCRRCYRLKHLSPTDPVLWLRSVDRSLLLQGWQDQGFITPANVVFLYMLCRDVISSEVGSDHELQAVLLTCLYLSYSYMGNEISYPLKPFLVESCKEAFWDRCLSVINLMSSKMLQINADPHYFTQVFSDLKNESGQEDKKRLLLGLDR
- Experimental Protocol: In vitro Pak1 phosphorylation by immunoprecipitated CDK5/p35
- Experimental Parameters: CDK5/p35 immunoprecipitated from P02 rat cortices; read-out: IC50 CDK5/p35 towards GST-Pak1K299
pIC50: −log10 of the molar value.
Experimental Endpoint: pIC50

Task item: Short answer please: pIC50, CDK5/p35 (Rattus norvegicus, UniProt Q03114), entry NC1=NC(=O)C(=C2CCNC(=O)c3[nH]c(Br)cc32)N1
Reply: 7.00 to 8.00

====

- Subject Of Test: CDK1/cyclin B
- Experimental Protocol: CDK1/cyclin B kinetic experiments varying ATP and HD
- Experimental Parameters: ATP 0.05 to 0.25 mM, histone H1 0.7 mg/ml; read-out: apparent inhibition constant (Ki)
Experimental Endpoint: Ki (µM)
Hi! Could you send only the number? It should be in µM, unit omitted.

Task item: Consider the molecule shown here: NC1=NC(=O)C(=C2CCNC(=O)c3[nH]c(Br)cc32)N1 What is its recorded Ki?
Reply: 0.05

====

- Subject Of Test: UniProt P43289
- Sequence (P43289 whole entry): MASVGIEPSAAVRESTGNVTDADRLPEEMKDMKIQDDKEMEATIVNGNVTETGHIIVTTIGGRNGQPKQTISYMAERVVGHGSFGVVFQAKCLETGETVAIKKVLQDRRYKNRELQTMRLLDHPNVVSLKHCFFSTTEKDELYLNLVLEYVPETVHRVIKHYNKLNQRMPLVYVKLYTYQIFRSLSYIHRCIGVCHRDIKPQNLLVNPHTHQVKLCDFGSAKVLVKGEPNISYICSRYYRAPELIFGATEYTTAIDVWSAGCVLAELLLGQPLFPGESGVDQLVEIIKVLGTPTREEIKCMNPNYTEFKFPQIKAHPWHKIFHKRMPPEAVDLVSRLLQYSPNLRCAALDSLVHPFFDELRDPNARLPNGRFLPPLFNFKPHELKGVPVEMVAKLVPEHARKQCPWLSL
Experimental Endpoint: pIC50
Answer as the number alone; pIC50 is minus log10 of concentration in mol/L.

Task item: Using the record for NC1=NC(=O)C(=C2CCNC(=O)c3[nH]c(Br)cc32)N1 , report its pIC50.
Reply: 7.10

====

- Subject Of Test: protein kinase C β2 (Homo sapiens, UniProt P05771)
- Sequence (P05771 1-673 isoform P05771-2): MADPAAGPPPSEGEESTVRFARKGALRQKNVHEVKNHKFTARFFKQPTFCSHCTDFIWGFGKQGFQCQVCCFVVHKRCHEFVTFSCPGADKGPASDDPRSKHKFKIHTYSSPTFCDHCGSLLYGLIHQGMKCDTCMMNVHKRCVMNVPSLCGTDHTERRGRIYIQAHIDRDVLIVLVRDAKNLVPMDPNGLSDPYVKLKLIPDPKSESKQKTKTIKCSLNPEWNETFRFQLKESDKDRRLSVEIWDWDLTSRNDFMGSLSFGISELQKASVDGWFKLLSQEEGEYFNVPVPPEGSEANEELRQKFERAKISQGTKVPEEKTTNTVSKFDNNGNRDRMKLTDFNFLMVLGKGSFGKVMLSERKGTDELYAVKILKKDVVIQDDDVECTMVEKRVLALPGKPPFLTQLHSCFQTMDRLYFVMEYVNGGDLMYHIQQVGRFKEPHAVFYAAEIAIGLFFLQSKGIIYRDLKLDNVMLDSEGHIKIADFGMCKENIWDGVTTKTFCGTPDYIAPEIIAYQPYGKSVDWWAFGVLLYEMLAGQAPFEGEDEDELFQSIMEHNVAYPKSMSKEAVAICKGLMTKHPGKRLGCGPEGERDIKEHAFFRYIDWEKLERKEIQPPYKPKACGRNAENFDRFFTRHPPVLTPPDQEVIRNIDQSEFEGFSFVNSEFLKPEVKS
Experimental Endpoint: IC50 (nM)
Output spec: scalar in nM, unitless text.

Task item: Query IC50 on protein kinase C β2 (Homo sapiens, UniProt P05771) for NC1=NC(=O)C(=C2CCNC(=O)c3[nH]c(Br)cc32)N1 [hymenialdisine]
Reply: 1700
